- Tested on: MS2 coat protein
- EXPERIMENTAL DETAILS: apparent KD of MS2 coat protein; designed switch direction (-1 OFF switch, 1 ON switch): -1; higher = weaker reporter binding
- CONDITION SET: input ligand: FMN 200 uM
Please mark 1.0 if the recorded apparent KD of MS2 coat protein is equal to or greater than 90 nM, and 0.0 if it falls below.

Please indicate if the recorded apparent KD of MS2 coat protein for AACGUGCAGCUUUGCUGUACGCGUACAUGAGGAUCACCCAUGUAGGAUAUGGUACGCAAAGCGUGCUAGAAGGAUAUGGAGAAA [Mat - Exclusion NG 3 - Mod of JL - D82] (Eterna round: R96, puzzle: Exclusion NG 3) meets or exceeds 90 nM. 0.0

And AGUCGAAAGACAAAAACAGACAUGAGGAUCACCCAUGUAAAGGGUGAACAAGCCACCCGCUCGUCUUAAAAAAAAAA [Mat - Sensor v2 - JL mod - D25] (Eterna round: R96, puzzle: Sensor v2, turn-off variant) ? 1.0

And GCACGGAUGGUAGGAUAUCCUUGCGAUUAGCAAGGAGAAGGACCACAUGAGGAUCACCCAUGUACCUCAAUUAUCCUUCCGUGC [Eli exng1 - 023] (Eterna round: R96, puzzle: Exclusion NG 1) ? 0.0

And UUAAUGGCUGUGAGGAUAUCGGAUAGAUAGAUAUUCGAGAAGGCACAUGAGGAUCACCCAUGUGUGAUUAGAGA [Brourd's EX4 #63] (Eterna round: R97, puzzle: Brourd's mod of Exclusion 4) ? 1.0

And AUUUAGCAAGUCAGAUCCUACAUGAGGAUCACCCAUGUUGUUCGUCUUAUUUGAAGACAACACAAAAGUGUUGUCUU [Omei Mir OFFv1 B5] (Eterna round: R97, puzzle: Sensor, turn-off variant 1) ? 0.0

And AUAAUGUCAGGAUAUCGAACUUACUACCUCGGUAGUAAGUUCGAGAAGGGACAUGAGGAUCACCCAUGUGAUCA [E4/1-A5] (Eterna round: R97, puzzle: Exclusion 4) ? 0.0

And AGUUGGCGAGGAUAUACAUGAGGAUCACCCAUGUAAAAAAAAAAAAAAAAAACUUCAUGUAGAAGGCGCUGACA [Starry Exclusion 3.4 (biggestlegoheroicafanever round 1 mod)] (Eterna round: R96, puzzle: Exclusion 3) ? 1.0

And UUGAUUCAUGUAGGAUAUGCGUGGCGAAGCUAUGCAGAAGGACAUGAGGAUCACCCAUGUGCUUGCGUCCGCGUACGGAUGCUA [JL ENG1 1.23] (Eterna round: R96, puzzle: Exclusion NG 1) ? 1.0

* * *

- Tested on: MS2 coat protein
- EXPERIMENTAL DETAILS: apparent KD of MS2 coat protein; designed switch direction (-1 OFF switch, 1 ON switch): -1; higher = weaker reporter binding
- CONDITION SET: Eterna round: R95; input ligand: FMN 200 uM
Please mark met if the recorded apparent KD of MS2 coat protein is equal to or greater than 50 nM, and not met if it falls below.

Please indicate if the recorded apparent KD of MS2 coat protein for AUUUAGAGAGGAUAUAUAUUUUAAAACAUGAGGAUCACCCAUGUAAUUUUAUGGGAGUAAAUAGAAGGCUCAUUUA [JMFs Solution 2] (puzzle: Exclusion 5) meets or exceeds 50 nM. met

And GAUUGACAUGAGGAUCACCCAUGUGAGGAUAUCGGCUGGACCGUGUUGGCUUGCCUCUCGAGAAGGCGCAUAGG [Exclusion 1 V52] (puzzle: Exclusion 1) ? not met

And UAGGAGUCAGGAUAUGCGAGAGAUUGAAGUAUGGGAAGUGAGCAGAAGGGACAUGAGGAUCACCCAUGUGAGAA [JR_Exclu4_Sub094] (puzzle: Exclusion 4) ? met

And UAUUAGCAAGCAAGGUCCCACAUGAGGAUCACCCAUGUGCUCGUCUUAUAAGGUACUGUGACGAAAGUCACGGUACC [Sensor 3, v1 - 92] (puzzle: Sensor v3, turn-off variant 1) ? not met

Where do the numbers come from? From the supplement of paper PMC9170038.
